- measurement_target: Catechol O-methyltransferase (Homo sapiens) (UniProt P21964)
- Sequence (P21964 whole entry, looked up): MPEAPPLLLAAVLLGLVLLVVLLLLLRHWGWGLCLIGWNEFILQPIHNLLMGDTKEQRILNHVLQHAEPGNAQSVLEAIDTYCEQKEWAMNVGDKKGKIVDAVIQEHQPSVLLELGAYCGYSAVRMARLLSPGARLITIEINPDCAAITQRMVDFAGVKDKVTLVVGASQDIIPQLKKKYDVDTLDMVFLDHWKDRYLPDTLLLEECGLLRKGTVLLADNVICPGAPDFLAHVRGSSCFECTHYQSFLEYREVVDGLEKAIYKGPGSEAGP
- test_method_notes: Confirmatory Screen for Target Class Profiling of Small Molecule Inhibitors of Methyltransferases (AID 1745852)
- condition_summary: MTase-Glo luminescence, SAH detection, recombinant enzyme; measured here: COMT max response; stronger effect = lower value
We begin with a simple list: items and their reported activity.
Quick note: give the figure in %, leave out the unit.

Example results:
Cc1noc(C)c1[S+](=O)([O-])N1CCn2c(nn(-c3ccc(C(F)(F)F)cc3)c2=O)C1 = -1.02
Cc1cccc(N2CCN(C(=O)CCc3nnc4n(CCC(C)C)c(=O)c5ccccc5n34)CC2)c1C = -0.369
CCOC(=O)C1CCCN(S(=O)(=O)c2ccc3[nH]c(=O)[nH]c3c2)C1 (stereo not given) = 2.57

activity measured on CC(C)c1ccc(NC(=O)Cn2c(=O)oc3cc(S(=O)(=O)NCc4ccccc4)ccc32)cc1 = 0

Lab book: activity of COc1cccc(CNC(=O)c2sc(=S)n3c2[nH]c(=O)c2cc4c(cc23)OCO4)c1 noted as -25.7

// recorded activity for COc1ccc(-c2cc(C(=O)NCc3cccnc3)c3c(c2)N(C)CCO3)cc1OC : 3.17

According to the records, this compound CC(C)Cn1c(=O)c2ccccc2n2c(CCC(=O)N3CCC(Cc4ccccc4)CC3)nnc12 displays activity of -2.5

Entry CCCS(=O)(=O)N1CCCC(Cn2c(C)nc3cccnc32)C1 (stereo not given) — recorded activity = 1.15

// activity lookup, compound = COc1ccc(N2C(=O)c3ccc(-c4ccco4)n3CC2(C)C(=O)NCc2ccccc2)cc1OC (stereo not given) , result: -7.65

activity for Cc1ccc(-c2ccc(N)nc2)c2cccnc12 is -62.1

----------
- measurement_target: Catechol O-methyltransferase (Homo sapiens) (UniProt P21964)
- test_method_notes: Confirmatory Screen for Target Class Profiling of Small Molecule Inhibitors of Methyltransferases (AID 1745852)
- condition_summary: MTase-Glo luminescence, SAH detection, recombinant enzyme; measured here: COMT max response; stronger effect = lower value
measurement_kind: activity (%)
The reply should contain only the number, in %.

Measured activity of COc1ccc(-c2cc3nc4c(c(=O)n3[nH]2)CN(C(=O)CN(C)S(=O)(=O)c2cnc[nH]2)CC4)cc1 : -19.9

Notebook: O=C(Nc1ccc(F)c(Cl)c1)N1CCn2cccc2C1Cc1ccccc1 (stereo not given) , activity read as -2.26

Looking up Cc1cnc(C2CC2)n1C1CCN(S(=O)(=O)c2ccc3c(c2)OCCO3)CC1 , I see its activity listed as -0.0283

// field: activity; key: C[S+](=O)([O-])N1CCC(Cn2ccc3c(N4CCOCC4)nc(-c4cccc5[nH]ncc45)cc32)CC1 ; value = -13.4

Input COc1cccc(NC(=O)Cn2c(=O)oc3cc(S(=O)(=O)N4CC(C)CC(C)C4)ccc32)c1 (stereo not given) . Output activity: 3.17

activity measured on O=C(CCc1nnc2n(Cc3ccc(Cl)cc3)c(=O)c3ccccc3n12)NCCN1CCCC1 = 4.15

Sure, the documented activity for COc1ccc(-c2n[nH]n3c2nc(=O)c2ccc(C(=O)NCc4ccc(OC)c(OC)c4)cc23)cc1 is -3.17

----------
- measurement_target: Cytochrome P450 1A2 (Homo sapiens) (UniProt P05177)
- Sequence (P05177 whole entry, looked up): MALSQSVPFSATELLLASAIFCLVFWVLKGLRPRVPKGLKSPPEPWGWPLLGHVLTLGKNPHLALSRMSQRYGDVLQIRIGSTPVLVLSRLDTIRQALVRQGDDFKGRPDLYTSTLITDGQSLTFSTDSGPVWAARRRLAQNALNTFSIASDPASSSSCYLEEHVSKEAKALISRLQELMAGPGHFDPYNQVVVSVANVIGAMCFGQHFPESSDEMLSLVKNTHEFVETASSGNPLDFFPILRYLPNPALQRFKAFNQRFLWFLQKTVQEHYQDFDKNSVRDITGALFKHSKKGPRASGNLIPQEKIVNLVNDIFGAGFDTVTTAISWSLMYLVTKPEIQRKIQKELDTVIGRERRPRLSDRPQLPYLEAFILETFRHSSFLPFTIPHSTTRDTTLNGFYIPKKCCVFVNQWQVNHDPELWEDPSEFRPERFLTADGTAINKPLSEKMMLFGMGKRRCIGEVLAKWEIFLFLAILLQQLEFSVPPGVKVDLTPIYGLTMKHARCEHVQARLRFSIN
- test_method_notes: p450-cyp1a2 (AID 410); also: potency is read from the fitted curve at half-maximal effect
- condition_summary: recombinant CYP1A2, luciferin-ME demethylation, luminescence; series mostly up to 57 µM
- Procedure: The P450 gene superfamily is involved in metabolism and the clearance of xenobiotics. This assay used human CYP1A2 to measure the demethylation of luciferin 6' methyl ether (Luciferin-ME; Promega-Glo) to luciferin. The luciferin is then measured by luminescence after the addition of a luciferase detection regeant. Luciferin-ME concentration in the assay was equal to its Km for CYP1A2. NCGC Assay Protocol Summary: […]
Records with an inconclusive call do not appear. The source made the active and inactive calls. The call rests on the fitted dose curve.
measurement_kind: Potency

COc1ccccc1-c1nc(N2CCN(C)CC2)c2ccccc2n1 = 12.6 µM (active)
COc1ncc2nc(-c3cccs3)c(=O)n(CCC#N)c2n1 = 6.31 µM (active)

Proceeding to the next compound to report its Potency.
Noted Potency for COCCn1c(=O)c(CCc2ccccc2)nc2cncnc21 , tested on Cytochrome P450 1A2 (Homo sapiens) (UniProt P05177): 10 µM (active)

----------
- System: 3D7
- test_method_notes: qHTS profiling for inhibitors of Plasmodium falciparum proliferation (AID 504749); also: nearly all actives have a fitted effect of over 60% in size
- condition_summary: P. falciparum in erythrocytes, SYBR Green DNA, 72 h; series mostly up to 28.7 µM
- Protocol: NIH National Institute of Allergy and Infectious Diseases [NIAID] NIH Chemical Genomics Center [NCGC] […] Because mature erythrocytes lack DNA, only Plasmodium-derived DNA is detected. NCGC Assay Protocol Summary: The SYBR Green viability assay was adapted from a method described previously (Plouffe et al., 2008). […] The following morning, fluorescence intensity at 485(14) nm excitation and 535(25) nm emission wavelengths was measured on an EnVision (Perkin Elmer) plate reader. […]
Records with an inconclusive call do not appear. The source made the active and inactive calls. The call rests on the fitted dose curve; in most records, active means well fitted inhibition curve with a large enough effect; inconclusive means small, poorly fitted or top-dose-only effect; inactive means flat fitted curve, though single readings scatter.
In this exercise, the only acceptable responses are 1 (active), -1 (inactive)

Consider the worked cases shown below.
CC(C)CN(C[C@@H](OP(=O)(O)O)[C@H](Cc1ccccc1)NC(=O)O[C@@H]1CCOC1)S(=O)(=O)c1ccc(N)cc1 = -1
NC1=NC(S)C2N=CN=C2N1 (configuration not stated) = -1
S=C1NC=NC2N=CNC12 (configuration not stated) = -1
CN(C)CCCCCCN(C)C = -1
CC1(C)S[C@@H]2[C@H](NC(=O)COc3ccccc3)C(=O)N2[C@H]1C(=O)O = -1

QUERY: // outcome(item) with item = C/C=C\c1ccc(OC)cc1
RESULT: -1

QUERY: Hi team, can someone confirm the assay call for CO[C@@H]1[C@@H](OC2OC(C)C(OC3CC(C)(O)C(OC(=O)CC(C)C)C(C)O3)C(N(C)C)C2O)[C@@H](CC=O)C[C@@H](C)C(=O)/C=C\C2O[C@H]2C[C@@H](C)OC(=O)C[C@H]1OC(C)=O (some centres not stated) ?
RESULT: 1

----------
- measurement_target: Rap guanine nucleotide exchange factor 3 (Homo sapiens)
- test_method_notes: Confirmatory qHTS for agonist of cAMP-regulated guanine nucleotide exchange factor 3 (EPAC1) (AID 1645881); also: nearly all actives have a fitted effect of over 75% in size;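 as to activation: EPAC1 catalysed release of BODIPY-GDP from Rap1B seen as fluorescence loss; 100% = effect of cAMP agonist control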
- condition_summary: EPAC1 Rap1B BODIPY-GDP exchange fluorescence; series mostly up to 154 µM
Results filed as inconclusive are left out. Activity calls are given as the source filed them. Calls follow the shape of the dose curve; as a rule, active = well fitted activation curve with a large enough effect; inconclusive = small, poorly fitted or top-dose-only effect; inactive = no such curve, though single readings can be large or run the other way.
I would appreciate it if you answered using one of these outcomes: active, inactive

Study these solved cases before continuing.
COc1ccc(N2C(=O)[C@H]3CCC=C[C@H]3[C@@H]2c2ccccc2Br)cc1 = inactive
CC(C)COc1ccc(C(=O)Nc2cc(-c3ccccc3)no2)cc1 = inactive
CCN=C1S/C(=C\c2ccc(-c3cccc(C(=O)O)c3)o2)C(=O)N1CC = inactive
COc1ccc(/C=C2\Sc3ccc(C(=O)N4CCN(Cc5ccccc5)CC4)cc3N(C)C2=O)cc1OC = inactive
O=C1/C(=C\c2cc([N+](=O)[O-])ccc2O)SC(=S)N1Cc1ccc(Cl)cc1 = inactive
N#CC(C#N)=C1C=C2C=C(N3CCOCC3)CCC2CC1 (stereo unspecified) = active
CC[C@]12c3[nH]c4cc(-c5ccco5)ccc4c3CCN1C(=O)[C@@H](CC(=O)NCCCOC)C[C@@H]2C(=O)N1CCN(C(=O)C2CC2)CC1 = inactive
O=C(Nc1c2c(nc3ccccc13)CCCC2)c1ccccc1F = inactive
Clc1cccc(-c2nc3ccc(Cl)cn3c2Cc2ccsc2)c1 = inactive
CCOc1cc(-c2c(C#N)c(N)nc3c2CCCC3C)ccc1O (stereo unspecified) = inactive

Turning now to a further compound:
QUERY: State the result this test recorded for O=C(NCc1cccc(Cl)c1)c1ccc(S(=O)(=O)Nc2cccc(C(F)(F)F)c2)cc1 .
RESULT: inactive

----------
- measurement_target: Rap guanine nucleotide exchange factor 3 (Homo sapiens) (UniProt O95398)
- Sequence (O95398 whole entry, looked up): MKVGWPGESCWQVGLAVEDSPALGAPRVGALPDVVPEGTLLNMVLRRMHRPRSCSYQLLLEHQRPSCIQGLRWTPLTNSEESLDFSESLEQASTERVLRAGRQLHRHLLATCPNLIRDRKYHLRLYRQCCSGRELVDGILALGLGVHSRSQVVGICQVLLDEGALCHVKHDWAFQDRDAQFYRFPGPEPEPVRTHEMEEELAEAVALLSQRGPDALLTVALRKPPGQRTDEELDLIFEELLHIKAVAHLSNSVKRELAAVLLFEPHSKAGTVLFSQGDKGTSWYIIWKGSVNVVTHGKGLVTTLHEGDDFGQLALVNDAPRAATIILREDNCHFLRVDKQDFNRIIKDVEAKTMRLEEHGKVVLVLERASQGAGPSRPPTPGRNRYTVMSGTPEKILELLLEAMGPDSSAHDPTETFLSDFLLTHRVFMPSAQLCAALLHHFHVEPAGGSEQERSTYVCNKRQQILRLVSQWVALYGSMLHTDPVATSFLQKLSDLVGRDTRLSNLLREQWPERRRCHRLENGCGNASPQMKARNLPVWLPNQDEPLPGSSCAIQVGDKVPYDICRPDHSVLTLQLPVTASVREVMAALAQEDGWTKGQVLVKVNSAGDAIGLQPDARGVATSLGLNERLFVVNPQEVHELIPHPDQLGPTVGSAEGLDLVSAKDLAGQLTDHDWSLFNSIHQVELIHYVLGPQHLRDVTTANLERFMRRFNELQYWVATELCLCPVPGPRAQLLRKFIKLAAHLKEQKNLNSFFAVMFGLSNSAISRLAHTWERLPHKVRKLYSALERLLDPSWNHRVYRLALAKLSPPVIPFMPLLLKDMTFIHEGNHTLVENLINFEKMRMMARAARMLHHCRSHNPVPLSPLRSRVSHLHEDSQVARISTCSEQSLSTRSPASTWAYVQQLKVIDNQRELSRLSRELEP
- test_method_notes: Counterscreen qHTS for agonist of cAMP-regulated guanine nucleotide exchange factor 3 (EPAC1) (AID 1645889); also: % of control where 0% means no effect; nearly all actives have a fitted effect of over 40% in size
- condition_summary: EPAC1 Rap1B-BODIPY-GDP exchange, fluorescence; series mostly up to 154 µM
Inconclusive results are not listed. Activity calls are given as the source filed them. The call rests on the fitted dose curve; in most records, active means well fitted activation curve with a large enough effect; inconclusive means small, poorly fitted or top-dose-only effect, or another doubt; inactive means no such curve, though single readings can be large or run the other way.
measurement_kind: activation

Examples from the recorded data:
CCN(c1ccc(NC(=O)CCc2nc3sc4c(c3c(=O)[nH]2)CCCC4)cc1)C(C)C = 2.05% [at 30.8 µM] (inactive)
C/C(=N\NS(=O)(=O)c1ccccc1)c1cc(Cl)cc(Cl)c1O = inactive
Cc1nnc(SCCn2c(N3CCC(Cc4ccccc4)CC3)nc3c2c(=O)[nH]c(=O)n3C)s1 = inactive
O=C(COC(=O)COc1ccc(Cl)cc1Cl)NC1CCCC1 = -1.05% [at 30.8 µM] (inactive)

We now examine a further molecule.
Record Cc1ccc2oc(C(=O)N(Cc3ccc(N(C)C)cc3)CC3CCCO3)c(C)c2c1 (stereo not given) has Rap guanine nucleotide exchange factor 3 (Homo sapiens) (UniProt O95398) activation equal to inactive
